Collected CC50 values appear next to each entry.
Experiment: in vitro
Details: African green monkey

Below, each entry is followed by its recorded CC50 result.
CN(C)C(=O)COC(=O)Cc1ccc(OC(=O)c2ccc(NC(=N)N)cc2)cc1: > 50 µM
CCN(CC)CCCC(C)Nc1ccnc2cc(Cl)ccc12 (stereo not shown): > 30 µM
CCC(CC)COC(=O)[C@H](C)N[P@](=O)(OC[C@H]1O[C@@](C#N)(c2ccc3c(N)ncnn23)[C@H](O)[C@@H]1O)Oc1ccccc1: > 30 µM

Documented CC50 of `CC(C)C[C@H](NC(=O)c1cc2ccccc2o1)C(=O)N[C@H]1CC[C@@H](C)N(S(=O)(=O)c2ccccn2)CC1=O` : > 50 µM

----------
System: NiV
Test: organism not typed
Assay type: cell-based
Conditions: HeLa
parameter: pEC50
pEC50 (log units): -log10 of the concentration in mol/L.

Documented pEC50 of `CC(C)C[C@H](NC(=O)c1cc2ccccc2o1)C(=O)N[C@H]1CC[C@@H](C)N(S(=O)(=O)c2ccccn2)CC1=O` : 7.82

----------
System: SARS-CoV-2 (USA_WA1/2020)
Assay: microbe, parasite or virus in culture
Type: cell-based
Details: Severe acute respiratory syndrome coronavirus 2, Vero C1008, 72 h, read-out: Antiviral IC50
parameter: IC50 (µM)
Unit µM implied. Number only.

Below, each entry is followed by its recorded IC50 result.
CCN(CC)CCCC(C)Nc1ccnc2cc(Cl)ccc12 (stereo not shown) [Chloroquine]: 3.71
CCC(CC)COC(=O)[C@H](C)N[P@](=O)(OC[C@H]1O[C@@](C#N)(c2ccc3c(N)ncnn23)[C@H](O)[C@@H]1O)Oc1ccccc1 [Remdesivir]: 4.15

Documented IC50 of CC(C)C[C@H](NC(=O)c1cc2ccccc2o1)C(=O)N[C@H]1CC[C@@H](C)N(S(=O)(=O)c2ccccn2)CC1=O [relacatib] : 0.02

----------
Test system: EBOV (Kikwit)
Experiment: microbe, parasite or virus in culture
Assay type: cell-based
Settings: Zaire ebolavirus, Vero
parameter: EC50 (µM)
Unit µM implied. Number only.

Documented EC50 of `CC(C)C[C@H](NC(=O)c1cc2ccccc2o1)C(=O)N[C@H]1CC[C@@H](C)N(S(=O)(=O)c2ccccn2)CC1=O` : 2.89

----------
System: MERS (EMC/2012)
Assay: microbe, parasite or virus in culture
Format: cell-based
Conditions: Middle East respiratory syndrome-related coronavirus, Vero C1008, read-out: Antiviral IC50 (std-incubation)
Collected pIC50 values appear next to each entry.
pIC50 (log units): -log10 of the concentration in mol/L.

Below, each entry is followed by its recorded pIC50 result.
CCN(CC)CCCC(C)Nc1ccnc2cc(Cl)ccc12 (stereo not shown) [Chloroquine]: 4.68
CC(C)C[C@H](NC(=O)c1cc2ccccc2o1)C(=O)N[C@H]1CC[C@@H](C)N(S(=O)(=O)c2ccccn2)CC1=O [relacatib]: 6.22

Now take the following compound into account.
Documented pIC50 of CCC(CC)COC(=O)[C@H](C)N[P@](=O)(OC[C@H]1O[C@@](C#N)(c2ccc3c(N)ncnn23)[C@H](O)[C@@H]1O)Oc1ccccc1 [Remdesivir] : 4.90

----------
Test system: HTNV
Assay: organism not typed
Assay type: cell-based
Conditions: Vero
pEC50: −log10 of the molar value.
parameter: pEC50

Documented pEC50 of `CC(C)C[C@H](NC(=O)c1cc2ccccc2o1)C(=O)N[C@H]1CC[C@@H](C)N(S(=O)(=O)c2ccccn2)CC1=O` : < 4.00

// provenance: patent US20240066037A1
